- measuredOn: Voltage-gated inwardly rectifying potassium channel KCNH2 (Homo sapiens, UniProt Q12809)
- Sequence (Q12809 whole entry): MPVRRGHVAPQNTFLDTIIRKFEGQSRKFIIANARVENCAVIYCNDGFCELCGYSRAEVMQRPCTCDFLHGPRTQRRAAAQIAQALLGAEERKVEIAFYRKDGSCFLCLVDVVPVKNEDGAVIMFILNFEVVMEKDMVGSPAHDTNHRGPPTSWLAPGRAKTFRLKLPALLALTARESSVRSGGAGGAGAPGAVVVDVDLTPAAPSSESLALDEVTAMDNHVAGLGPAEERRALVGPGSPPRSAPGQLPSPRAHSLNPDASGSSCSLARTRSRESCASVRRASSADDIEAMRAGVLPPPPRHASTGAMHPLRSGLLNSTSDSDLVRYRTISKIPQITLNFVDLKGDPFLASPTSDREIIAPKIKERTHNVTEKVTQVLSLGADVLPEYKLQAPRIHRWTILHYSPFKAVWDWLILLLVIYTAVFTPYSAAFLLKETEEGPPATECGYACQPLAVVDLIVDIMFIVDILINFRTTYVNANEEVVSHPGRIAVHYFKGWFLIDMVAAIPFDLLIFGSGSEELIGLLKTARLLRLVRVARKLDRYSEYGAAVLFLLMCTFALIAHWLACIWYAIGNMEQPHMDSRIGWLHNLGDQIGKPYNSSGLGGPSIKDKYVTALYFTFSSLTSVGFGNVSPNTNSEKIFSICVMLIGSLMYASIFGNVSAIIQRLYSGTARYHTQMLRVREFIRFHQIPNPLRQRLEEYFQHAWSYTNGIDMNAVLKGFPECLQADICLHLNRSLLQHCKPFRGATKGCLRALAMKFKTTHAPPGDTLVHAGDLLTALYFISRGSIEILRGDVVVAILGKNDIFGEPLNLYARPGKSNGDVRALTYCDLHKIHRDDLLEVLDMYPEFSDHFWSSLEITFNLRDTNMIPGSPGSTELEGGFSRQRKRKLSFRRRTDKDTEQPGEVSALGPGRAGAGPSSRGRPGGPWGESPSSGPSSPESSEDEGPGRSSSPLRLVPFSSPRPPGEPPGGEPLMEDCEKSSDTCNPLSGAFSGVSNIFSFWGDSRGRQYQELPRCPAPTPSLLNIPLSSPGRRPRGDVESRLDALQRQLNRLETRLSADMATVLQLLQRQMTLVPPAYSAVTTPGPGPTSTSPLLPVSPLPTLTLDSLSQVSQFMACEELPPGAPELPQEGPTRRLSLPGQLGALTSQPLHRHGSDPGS
- assay: Inhibition of hERG channel expressed in CHO cells by whole-cell patch clamp assay
measuredMetric: IC50

CCn1c(=O)[nH]c(=O)c2c1nc(Cc1cn3cc(C)sc3n1)n2CC1COC1 :: > 30 µM

###

- assay: MRT (0 to infinitive) in Sprague-Dawley rat at 50 mg/kg, po measured upto 1440 mins by LC-MS/MS analysis
- Type: ADME, organism-based
- statedConditions: in vivo
measuredMetric: MRT inf

CCn1c(=O)[nH]c(=O)c2c1nc(Cc1cn3cc(C)sc3n1)n2CC1COC1 :: 2.75 h

###

// reported solubility per item
- assay: Solubility in simulated intestinal fluid by HPLC-UV analysis
- Format: physicochemical
measuredMetric: solubility (µM)

CCn1c(=O)[nH]c(=O)c2c1nc(Cc1cn3cc(C)sc3n1)n2Cc1ccccc1 :: 48.5
CCn1c(=O)[nH]c(=O)c2c1nc(Cc1cn3cc(Cl)sc3n1)n2Cc1ccccc1 :: 12.7

###

- measuredOn: Tryptophan 5-hydroxylase 1 (Homo sapiens)
- Sequence (P17752 whole entry): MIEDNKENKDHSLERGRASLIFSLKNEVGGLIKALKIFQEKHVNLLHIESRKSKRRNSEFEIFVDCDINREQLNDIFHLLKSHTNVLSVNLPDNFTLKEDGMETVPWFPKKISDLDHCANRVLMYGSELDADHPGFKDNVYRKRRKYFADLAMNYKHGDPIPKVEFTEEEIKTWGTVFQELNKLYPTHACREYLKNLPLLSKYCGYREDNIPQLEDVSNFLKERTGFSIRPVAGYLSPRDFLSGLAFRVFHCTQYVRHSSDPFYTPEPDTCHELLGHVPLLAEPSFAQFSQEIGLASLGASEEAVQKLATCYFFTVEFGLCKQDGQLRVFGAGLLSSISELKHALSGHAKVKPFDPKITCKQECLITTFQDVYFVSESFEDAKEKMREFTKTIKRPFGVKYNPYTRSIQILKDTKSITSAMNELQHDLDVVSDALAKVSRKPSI
- assay: Inhibition of recombinant MBP-tagged full length human THP1 using L-Trp as substrate assessed as formation of 5-HTP by measuring fluorescent property
Labelling: IC50 reported below 300 nM becomes criterion met; at or above becomes criterion not met.

CCn1c(=O)[nH]c(=O)c2c1nc(Cc1cn3cc(C)sc3n1)n2CC=C(C)C :: criterion met
CCn1c(=O)[nH]c(=O)c2c1nc(Cc1cn3cc(C)sc3n1)n2CC1CCN(C)CC1 :: criterion not met
CCn1c(=O)[nH]c(=O)c2c1nc(Cc1cn3cc(C)sc3n1)n2CC1CCC1 :: criterion met
CCn1c(=O)[nH]c(=O)c2c1nc(Cc1cn3c(n1)CCCC3)n2Cc1cccc(C(=O)NC[C@H](N)C(=O)OC)c1 :: criterion not met
CCn1c(=O)[nH]c(=O)c2c1nc(Cc1cn3cc(C)sc3n1)n2CC(=O)O :: criterion not met
CCn1c(=O)[nH]c(=O)c2c1nc(Cc1cn3c(n1)CCCC3)n2Cc1cccc(C(=O)NC[C@H](NC(=O)OCc2ccccc2)C(=O)OC)c1 :: criterion not met
CCn1c(=O)[nH]c(=O)c2c1nc(Cc1cn3cc(C)sc3n1)n2Cc1cccc(C(=O)OC)c1 :: criterion met
CCn1c(=O)[nH]c(=O)c2c1nc(Cc1cn3cc(Cl)sc3n1)n2CC1COC1 :: criterion met

###

- assay: Drug uptake in Sprague-Dawley rat lung at 20 mg/kg, po measured at 2 hrs by LC-MS/MS analysis
- Format: ADME, organism-based
- statedConditions: read-out: Drug uptake
measuredMetric: concentration at 2 h

CCn1c(=O)[nH]c(=O)c2c1nc(Cc1cn3cc(C)sc3n1)n2CC1COC1 :: 76 ng/g

###

- assay: Drug uptake in CD-1 (ICR) mouse lung at 50 mg/kg measured 0.5 hrs by LC-MS/MS analysis
- Assay type: ADME, organism-based
- statedConditions: read-out: Drug uptake
measuredMetric: concentration at 0.5 h (ng/g)

CCn1c(=O)[nH]c(=O)c2c1nc(Cc1cn3cc(C)sc3n1)n2CC1COC1 :: 1720

###

- assay: Apparent permeability across apical to basal side in human Caco-2 cells at pH 6.5/7.4 measured at 5 uM by LC-MS/MS analysis
- Assay type: ADME, cell-based
- statedConditions: Caco-2, pH 6.5
measuredMetric: Papp A→B at 5 µM (×10⁻⁶ cm/s)

CCn1c(=O)[nH]c(=O)c2c1nc(Cc1cn3c(n1)CCCC3)n2Cc1ccccc1 :: 9.3
CCn1c(=O)[nH]c(=O)c2c1nc(Cc1cn3ccccc3n1)n2Cc1ccc(-c2ccn(C)n2)cc1 :: 2.3
CCn1c(=O)[nH]c(=O)c2c1nc(Cc1cn3cc(C)sc3n1)n2CC1CC1 :: 1.29
CCn1c(=O)[nH]c(=O)c2c1nc(Cc1cn3cc(Cl)sc3n1)n2Cc1ccc(-c2ccn(C)n2)cc1 :: 4.9
CCn1c(=O)[nH]c(=O)c2c1nc(Cc1cn3cc(Cl)sc3n1)n2Cc1ccccc1 :: 29.4
CCn1c(=O)[nH]c(=O)c2c1nc(Cc1cn3cc(Cl)sc3n1)n2CC1COC1 :: 0.26
CCn1c(=O)[nH]c(=O)c2c1nc(Cc1cn3cc(C)sc3n1)n2CC1COC1 :: 0.14
CCn1c(=O)[nH]c(=O)c2c1nc(Cc1cn3cc(C)sc3n1)n2Cc1ccccc1 :: 24.7

###

- assay: Metabolic stability in rat hepatocytes assessed as half life
- Format: ADME, cell-based, Hepatocyte
measuredMetric: half-life

CCn1c(=O)[nH]c(=O)c2c1nc(Cc1cn3cc(Cl)sc3n1)n2Cc1ccccc1 :: > 1 h
CCn1c(=O)[nH]c(=O)c2c1nc(Cc1cn3cc(Cl)sc3n1)n2CC1COC1 :: > 2.42 h
CCn1c(=O)[nH]c(=O)c2c1nc(Cc1cn3cc(C)sc3n1)n2CC1COC1 :: > 2.42 h
CCn1c(=O)[nH]c(=O)c2c1nc(Cc1cn3c(n1)CCCC3)n2Cc1ccccc1 :: > 1 h

###

- measuredOn: UniProt P17752
- assay: Inhibition of recombinant MBP-tagged full length human THP1 using L-Trp as substrate assessed as formation of 5-HTP by measuring fluorescent property
Labelling: IC50 reported below 200 nM becomes true (1); at or above becomes false (0).

CCn1c(=O)[nH]c(=O)c2c1nc(Cc1cn3cc(C)sc3n1)n2CC1CCNCC1 :: false (0)
CCn1c(=O)[nH]c(=O)c2c1nc(Cc1cn3cc(C)sc3n1)n2CC1CCN(C(C)C)CC1 :: false (0)
CCn1c(=O)[nH]c(=O)c2c1nc(Cc1cn3cc(C)sc3n1)n2CCCC(=O)O :: false (0)
CCn1c(=O)[nH]c(=O)c2c1nc(Cc1cn3cc(C)sc3n1)n2Cc1cc(C)cc(C)c1 :: true (1)
CCn1c(=O)[nH]c(=O)c2c1nc(Cc1cn3c(n1)CCCC3)n2CC1COC1 :: false (0)
CCn1c(=O)[nH]c(=O)c2c1nc(Cc1cn3cc(C)sc3n1)n2Cc1cccc(C(F)(F)F)c1 :: true (1)
CCn1c(=O)[nH]c(=O)c2c1nc(Cc1cn3cc(C)sc3n1)n2CC1COC1 :: true (1)
CCn1c(=O)[nH]c(=O)c2c1nc(Cc1cn3cc(C)sc3n1)n2CC1CC1 :: true (1)
CCn1c(=O)[nH]c(=O)c2c1nc(Cc1cn3c(n1)CCCC3)n2Cc1cccc(C(=O)NC[C@H](N)C(=O)O)c1 :: false (0)
CCn1c(=O)[nH]c(=O)c2c1nc(Cc1cn3c(n1)CCCC3)n2Cc1cccc(C(=O)O)c1 :: false (0)

###

- assay: Aqueous solubility of the compound in pH 7.4 PBS buffer by HPLC-UV analysis
- Format: physicochemical
measuredMetric: solubility

CCn1c(=O)[nH]c(=O)c2c1nc(Cc1cn3cc(Cl)sc3n1)n2Cc1ccc(-c2ccn(C)n2)cc1 :: < 10 µM
CCn1c(=O)[nH]c(=O)c2c1nc(Cc1cn3c(n1)CCCC3)n2Cc1ccccc1 :: > 200 µM
CCn1c(=O)[nH]c(=O)c2c1nc(Cc1cn3ccccc3n1)n2Cc1ccc(-c2ccn(C)n2)cc1 :: > 200 µM

###

- assay: Solubility in simulated intestinal fluid by HPLC-UV analysis
- Type: physicochemical
// reported solubility per item
measuredMetric: solubility

CCn1c(=O)[nH]c(=O)c2c1nc(Cc1cn3ccccc3n1)n2Cc1ccc(-c2ccn(C)n2)cc1 :: > 200 µM
CCn1c(=O)[nH]c(=O)c2c1nc(Cc1cn3cc(Cl)sc3n1)n2Cc1ccc(-c2ccn(C)n2)cc1 :: < 10 µM
CCn1c(=O)[nH]c(=O)c2c1nc(Cc1cn3c(n1)CCCC3)n2Cc1ccccc1 :: > 200 µM
